Attribution: paper PMC8151276

Molecular target: F2R (Homo sapiens, UniProt P25116)
Construct: purchased Promega (in-house HiBiT-GPCR construct library, NanoBRET)
Sequence (P25116 22-425): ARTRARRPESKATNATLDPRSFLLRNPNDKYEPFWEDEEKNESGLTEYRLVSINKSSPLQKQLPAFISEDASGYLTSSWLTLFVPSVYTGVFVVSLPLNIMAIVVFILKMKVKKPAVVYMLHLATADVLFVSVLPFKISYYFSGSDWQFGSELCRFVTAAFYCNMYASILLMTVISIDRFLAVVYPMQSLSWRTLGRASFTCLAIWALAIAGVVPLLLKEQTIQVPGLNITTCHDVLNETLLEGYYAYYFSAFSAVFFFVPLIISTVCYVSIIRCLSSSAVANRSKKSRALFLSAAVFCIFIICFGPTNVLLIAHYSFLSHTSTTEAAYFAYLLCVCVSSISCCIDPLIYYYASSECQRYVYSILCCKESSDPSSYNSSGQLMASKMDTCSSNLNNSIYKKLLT
Experiment: NanoBRET screen HiBiT-F2R in HEK293
Type: binding
Conditions: F2R; tracer 1μM
In this section we review reported NanoBRET Fold Response values for a set of molecules.
Number, no unit, nothing else.

Here's what some known entries look like.
inputSmiles	studyTarget	NanoBRET Fold Response
CC(C)N(CC[C@H](c1ccccc1)c1cc(CCNC(=O)c2ccc(CNC(=O)CCc3ccc4n3[B-](F)(F)[N+]3=C(c5ccc[nH]5)C=CC3=C4)cc2)ccc1O)C(C)C	F2R (Homo sapiens, UniProt P25116)	0.85
O=C(CCOCCOCCOCCOCCNC(=O)CCc1ccc2n1[B-](F)(F)[N+]1=C(c3ccc[nH]3)C=CC1=C2)NCCCN1CCN(C2=Nc3ccccc3Oc3ccc(Cl)cc32)CC1	F2R (Homo sapiens, UniProt P25116)	1.05
COc1ccccc1N1CCN(CCCCN2C(=O)c3ccc(CNC(=O)CCOCCOCCOCCOCCNC(=O)CCc4ccc5n4[B-](F)(F)[N+]4=C(c6ccc[nH]6)C=CC4=C5)cc3C2=O)CC1	F2R (Homo sapiens, UniProt P25116)	0.93
CCCn1c(=O)c2[nH]c(-c3ccc(OCC(=O)NCCNC(=O)CCOCCNC(=O)c4ccc(CNC(=O)CCc5ccc6n5[B-](F)(F)[N+]5=C(c7ccc[nH]7)C=CC5=C6)cc4)cc3)nc2n(CCC)c1=O	F2R (Homo sapiens, UniProt P25116)	0.80

Prompt: Which NanoBRET Fold Response is reported with F2R (Homo sapiens, UniProt P25116) for this entry: "CC(C)N(CC[C@H](c1ccccc1)c1cc(CCNC(=O)CCOCCOCCOCCOCCNC(=O)CCc2ccc3n2[B-](F)(F)[N+]2=C(c4ccc[nH]4)C=CC2=C3)ccc1O)C(C)C" ?
Response: 1.03

###

Molecular target: TACR2 (Homo sapiens, UniProt P21452)
Construct: purchased Promega (in-house HiBiT-GPCR construct library, NanoBRET)
Sequence (P21452 1-398): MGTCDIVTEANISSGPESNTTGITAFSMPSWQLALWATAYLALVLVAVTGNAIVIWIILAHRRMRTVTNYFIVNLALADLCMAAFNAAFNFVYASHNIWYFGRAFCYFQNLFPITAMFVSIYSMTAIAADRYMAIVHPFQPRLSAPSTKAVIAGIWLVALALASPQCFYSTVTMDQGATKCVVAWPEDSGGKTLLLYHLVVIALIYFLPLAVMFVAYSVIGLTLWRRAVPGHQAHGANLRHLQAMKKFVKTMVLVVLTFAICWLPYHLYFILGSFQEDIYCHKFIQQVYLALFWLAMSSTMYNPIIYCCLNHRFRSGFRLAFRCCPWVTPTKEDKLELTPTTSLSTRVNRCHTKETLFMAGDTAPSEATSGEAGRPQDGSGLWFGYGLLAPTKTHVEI
Assay: NanoBRET screen HiBiT-TACR2 in HEK293
Assay type: binding
Settings: TACR2; tracer 1μM
measuredProperty: NanoBRET Fold Response
Lab note: record the figure alone, no unit after it.

# example entries with known answers
molecule	studyTarget	NanoBRET Fold Response
O=C(CCOCCOCCOCCOCCNC(=O)CCc1ccc2n1[B-](F)(F)[N+]1=C(c3ccc[nH]3)C=CC1=C2)NCCCN1CCN(C2=Nc3ccccc3Oc3ccc(Cl)cc32)CC1 [Loxapine-a-2-NB590]	TACR2 (Homo sapiens, UniProt P21452)	0.64
Cc1nc2n(c(=O)c1CCN1CCC(c3noc4cc(F)ccc34)CC1)CCCC2OC(=O)NCCOCCOCCOCCOCCNC(=O)CCc1ccc2n1[B-](F)(F)[N+]1=C(c3ccc[nH]3)C=CC1=C2 (centres unmarked) [Risperidone-2-NB590]	TACR2 (Homo sapiens, UniProt P21452)	1.09
O=C(CCc1ccc2n1[B-](F)(F)[N+]1=C(c3ccc[nH]3)C=CC1=C2)NCc1ccc(C(=O)NCCOCCC(=O)N[C@@H]2CC[C@@]3(O)[C@H]4Cc5ccc(O)c6c5[C@@]3(CCN4CC3CC3)[C@H]2O6)cc1 [Naltrexone-3-NB590]	TACR2 (Homo sapiens, UniProt P21452)	0.91
CC(C)N(CC[C@H](c1ccccc1)c1cc(CCNC(=O)c2ccc(CNC(=O)CCc3ccc4n3[B-](F)(F)[N+]3=C(c5ccc[nH]5)C=CC3=C4)cc2)ccc1O)C(C)C [Tolterodine-BZ-NB590]	TACR2 (Homo sapiens, UniProt P21452)	1.40

Then there is this molecule:
Prompt: Would you kindly share the measured NanoBRET Fold Response for CC(C)N(CC[C@H](c1ccccc1)c1cc(CCNC(=O)CCOCCOCCOCCOCCNC(=O)CCc2ccc3n2[B-](F)(F)[N+]2=C(c4ccc[nH]4)C=CC2=C3)ccc1O)C(C)C [Tolterodine-2-NB590] ?
Response: 1.41

###

Target: ADRB3 (Homo sapiens, UniProt P13945)
Construct: purchased Promega (in-house HiBiT-GPCR construct library, NanoBRET)
Sequence (P13945 whole entry): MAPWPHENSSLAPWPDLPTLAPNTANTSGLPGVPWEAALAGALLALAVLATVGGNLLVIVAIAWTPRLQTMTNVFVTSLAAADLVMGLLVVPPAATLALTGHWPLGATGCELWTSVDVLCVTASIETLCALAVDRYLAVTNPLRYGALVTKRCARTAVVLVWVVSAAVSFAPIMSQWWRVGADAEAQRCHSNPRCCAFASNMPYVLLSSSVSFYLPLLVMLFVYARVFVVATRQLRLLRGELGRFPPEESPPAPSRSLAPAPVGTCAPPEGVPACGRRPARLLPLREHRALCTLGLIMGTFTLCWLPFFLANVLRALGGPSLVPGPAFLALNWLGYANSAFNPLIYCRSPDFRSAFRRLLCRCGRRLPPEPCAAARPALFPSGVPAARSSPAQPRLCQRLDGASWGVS
Assay: NanoBRET screen HiBiT-ADRB3 in HEK293
Format: binding
Settings: ADRB3; tracer 1μM
Method: Each tracer candidate was screened across the entire library of HiBiT-GPCR constructs using NanoBRET as the detection modality. As depicted in Figure 4A, the specificity of interactions was evaluated through decrease in BRET due to competitive displacement of a bound tracer by excess parental compound. Each tracer was analyzed for binding to each HiBiT-GPCR fusion in the absence and in the presence of competing parental compound. […]
measuredProperty: NanoBRET Fold Response
Output spec: single numeric token, no unit.

compound	NanoBRET Fold Response
O=C(CCc1ccc2n1[B-](F)(F)[N+]1=C(c3ccc[nH]3)C=CC1=C2)NCc1ccc(C(=O)NCCOCCC(=O)N[C@@H]2CC[C@@]3(O)[C@H]4Cc5ccc(O)c6c5[C@@]3(CCN4CC3CC3)[C@H]2O6)cc1 [Naltrexone-3-NB590]	1.02
O=C(CCc1ccc2n1[B-](F)(F)[N+]1=C(c3ccc[nH]3)C=CC1=C2)NCCOCCOCCNC(=O)OCCOCCN1CCN(C2=Nc3ccccc3Sc3ccccc32)CC1	0.99
O=C(CCOCCOCCOCCOCCNC(=O)CCc1ccc2n1[B-](F)(F)[N+]1=C(c3ccc[nH]3)C=CC1=C2)NCCCN1CCN(C2=Nc3ccccc3Oc3ccc(Cl)cc32)CC1	0.93
COc1ccccc1N1CCN(CCCCN2C(=O)c3ccc(CNC(=O)CCOCCNC(=O)c4ccc(CNC(=O)CCc5ccc6n5[B-](F)(F)[N+]5=C(c7ccc[nH]7)C=CC5=C6)cc4)cc3C2=O)CC1	0.92
Cc1cc2c(s1)Nc1ccccc1N=C2N1CCN(CCCNC(=O)CCOCCOCCOCCOCCNC(=O)CCc2ccc3n2[B-](F)(F)[N+]2=C(c4ccc[nH]4)C=CC2=C3)CC1	0.89
CCCn1c(=O)c2[nH]c(-c3ccc(OCC(=O)NCCNC(=O)CCOCCNC(=O)c4ccc(CNC(=O)CCc5ccc6n5[B-](F)(F)[N+]5=C(c7ccc[nH]7)C=CC5=C6)cc4)cc3)nc2n(CCC)c1=O	1.05
CC(C)N(CC[C@H](c1ccccc1)c1cc(CCNC(=O)c2ccc(CNC(=O)CCc3ccc4n3[B-](F)(F)[N+]3=C(c5ccc[nH]5)C=CC3=C4)cc2)ccc1O)C(C)C	0.99
CC(C)N(CC[C@H](c1ccccc1)c1cc(CCNC(=O)CCOCCOCCOCCOCCNC(=O)CCc2ccc3n2[B-](F)(F)[N+]2=C(c4ccc[nH]4)C=CC2=C3)ccc1O)C(C)C	0.97
Cc1nc2n(c(=O)c1CCN1CCC(c3noc4cc(F)ccc34)CC1)CCCC2OC(=O)NCCOCCOCCOCCOCCNC(=O)CCc1ccc2n1[B-](F)(F)[N+]1=C(c3ccc[nH]3)C=CC1=C2 (stereo not shown)	1.01

Next:
Prompt: Given "N#CN=C(NCCCOc1cccc(CN2CCCCC2)c1)NCCNC(=O)CCOCCOCCOCCOCCNC(=O)CCc1ccc2n1[B-](F)(F)[N+]1=C(c3ccc[nH]3)C=CC1=C2" , state its recorded NanoBRET Fold Response.
Response: 1.01

###

Target: GALR3 (Homo sapiens)
Construct: purchased Promega (in-house HiBiT-GPCR construct library, NanoBRET)
Sequence (O60755 1-368): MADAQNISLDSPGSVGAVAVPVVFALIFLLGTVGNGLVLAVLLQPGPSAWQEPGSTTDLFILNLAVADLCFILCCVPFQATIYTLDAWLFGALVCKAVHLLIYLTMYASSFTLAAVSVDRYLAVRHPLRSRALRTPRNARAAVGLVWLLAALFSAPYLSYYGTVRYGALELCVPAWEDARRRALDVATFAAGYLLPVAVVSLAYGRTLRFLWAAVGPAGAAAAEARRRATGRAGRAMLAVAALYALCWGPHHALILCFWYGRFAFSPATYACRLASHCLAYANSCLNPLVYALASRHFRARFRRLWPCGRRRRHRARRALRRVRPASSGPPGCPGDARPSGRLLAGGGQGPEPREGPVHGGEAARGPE
Experiment: NanoBRET screen HiBiT-GALR3 in HEK293
Type: binding
Details: GALR3; tracer 0.1μM
This listing pairs molecules with measured NanoBRET Fold Response.
Number only, please.

molecule	studyTarget	numericValue
O=C(CCc1ccc2n1[B-](F)(F)[N+]1=C(c3ccc[nH]3)C=CC1=C2)NCCOCCOCCNC(=O)OCCOCCN1CCN(C2=Nc3ccccc3Sc3ccccc32)CC1	GALR3 (Homo sapiens)	1.02

Prompt: // lookup NanoBRET Fold Response for "COc1ccccc1N1CCN(CCCCN2C(=O)c3ccc(CNC(=O)CCOCCNC(=O)c4ccc(CNC(=O)CCc5ccc6n5[B-](F)(F)[N+]5=C(c7ccc[nH]7)C=CC5=C6)cc4)cc3C2=O)CC1"
Response: 0.97

Prompt: I am curious: what NanoBRET Fold Response value has been reported for O=C(CCc1ccc2n1[B-](F)(F)[N+]1=C(c3ccc[nH]3)C=CC1=C2)NCc1ccc(C(=O)NCCOCCC(=O)N[C@@H]2CC[C@@]3(O)[C@H]4Cc5ccc(O)c6c5[C@@]3(CCN4CC3CC3)[C@H]2O6)cc1 [Naltrexone-3-NB590] ?
Response: 1.03

Prompt: GET /values?readout=NanoBRET Fold Response&item= "O=C(CCOCCOCCOCCOCCNC(=O)CCc1ccc2n1[B-](F)(F)[N+]1=C(c3ccc[nH]3)C=CC1=C2)NCCCN1CCN(C2=Nc3ccccc3Oc3ccc(Cl)cc32)CC1"
Response: 0.95

Prompt: Data request, read-out NanoBRET Fold Response, for "CC(C)N(CC[C@H](c1ccccc1)c1cc(CCNC(=O)CCOCCOCCOCCOCCNC(=O)CCc2ccc3n2[B-](F)(F)[N+]2=C(c4ccc[nH]4)C=CC2=C3)ccc1O)C(C)C"
Response: 0.76

Prompt: Looking for the measured NanoBRET Fold Response of "COc1ccccc1N1CCN(CCCCN2C(=O)c3ccc(CNC(=O)CCOCCOCCOCCOCCNC(=O)CCc4ccc5n4[B-](F)(F)[N+]4=C(c6ccc[nH]6)C=CC4=C5)cc3C2=O)CC1" , can you help?
Response: 0.97

Prompt: GET /values?readout=NanoBRET Fold Response&item= "CC(C)N(CC[C@H](c1ccccc1)c1cc(CCNC(=O)c2ccc(CNC(=O)CCc3ccc4n3[B-](F)(F)[N+]3=C(c5ccc[nH]5)C=CC3=C4)cc2)ccc1O)C(C)C"
Response: 1.09

Prompt: I'd like to know its NanoBRET Fold Response. The molecule in question is Cc1nc2n(c(=O)c1CCN1CCC(c3noc4cc(F)ccc34)CC1)CCCC2OC(=O)NCCOCCOCCOCCOCCNC(=O)CCc1ccc2n1[B-](F)(F)[N+]1=C(c3ccc[nH]3)C=CC1=C2 (centres unmarked)
Response: 0.90

Prompt: // NanoBRET Fold Response lookup, key: "N#CN=C(NCCCOc1cccc(CN2CCCCC2)c1)NCCNC(=O)CCOCCOCCOCCOCCNC(=O)CCc1ccc2n1[B-](F)(F)[N+]1=C(c3ccc[nH]3)C=CC1=C2"
Response: 1.09

Prompt: For the molecule "CCCn1c(=O)c2[nH]c(-c3ccc(OCC(=O)NCCNC(=O)CCOCCNC(=O)c4ccc(CNC(=O)CCc5ccc6n5[B-](F)(F)[N+]5=C(c7ccc[nH]7)C=CC5=C6)cc4)cc3)nc2n(CCC)c1=O" , what NanoBRET Fold Response is on record?
Response: 1.01

Prompt: I have this molecule here, "Cc1cc2c(s1)Nc1ccccc1N=C2N1CCN(CCCNC(=O)CCOCCOCCOCCOCCNC(=O)CCc2ccc3n2[B-](F)(F)[N+]2=C(c4ccc[nH]4)C=CC2=C3)CC1" , and I need its recorded NanoBRET Fold Response.
Response: 1.12
